The reported numbers originate from the NIST ThermoML archive (doi:10.1021/acs.jced.5b00613).

condition info: 323.15 K; 50000 kPa; Liquid; Vibrating tube method
± gives the expanded uncertainty stated by the source.
experimental endpoint: mass density

Example results:
compound	result
CCCCCCCCCCCCCCCC [hexadecane]	783.8 ± 0.9 kg/m3
CCCCCCCCCCCC [dodecane]	760.9 ± 0.9 kg/m3
CCCCCCCCCC [decane]	743.5 ± 0.9 kg/m3

Now turn to the next compound.
Lab book: mass density of CCCCCC [hexane] noted as 679.3 ± 1 kg/m3

* * *

condition info: 373.15 K; 30000 kPa; Liquid; Vibrating tube method
experimental endpoint: mass density (kg/m3)
Numbers only, in kg/m3.

Example results:
molecule smiles	quantitative result
CCCCCCCCCC	698.8
CCCCCCCCCCCCCCCC	743.4
CCCCCCCCCCCC	718.1

Now turn to the next compound.
Lab book: mass density of CCCCCC noted as 627

* * *

I'd be grateful if you could share measured mass density for these entries.
condition info: 373.15 K; 60000 kPa; Liquid; Vibrating tube method
One number for each entry, in kg/m3.

Example results:
molecule	experimental endpoint	quantitative result
CCCCCC [hexane]	mass density	654.9
CCCCCCCCCCCCCCCC [hexadecane]	mass density	762.4
CCCCCCCCCC [decane]	mass density	720.8

Lab book: mass density of CCCCCCCCCCCC [dodecane] noted as 738.9

* * *

condition info: 423.15 K; 10000 kPa; Liquid; Vibrating tube method
I'd be grateful if you could share measured mass density for these entries.
Give bare numbers, in kg/m3.

molecule smiles	experimental endpoint	unit name	quantitative result
CCCCCCCCCCCCCCCC	mass density	kg/m3	695.1
CCCCCC	mass density	kg/m3	551.5
CCCCCCCCCCCC	mass density	kg/m3	665.6

Now turn to the next compound.
Lab book: mass density of CCCCCCCCCC noted as 642.4

* * *

condition info: 373.15 K; 10000 kPa; Liquid; Vibrating tube method
± gives the expanded uncertainty stated by the source.
I'd be grateful if you could share measured mass density for these entries.

Example results:
molecule	mass density
CCCCCCCCCC [decane]	679.6 ± 3 kg/m3
CCCCCCCCCCCCCCCC [hexadecane]	727.7 ± 3 kg/m3
CCCCCC [hexane]	600 ± 3 kg/m3

Lab book: mass density of CCCCCCCCCCCC [dodecane] noted as 700.4 ± 3 kg/m3

* * *

I'd be grateful if you could share measured mass density for these entries.
condition info: 323.15 K; 1000 kPa; Liquid; Vibrating tube method
Numbers only, in kg/m3.

Example results:
molecule smiles	experimental endpoint	quantitative result
CCCCCCCCCC	mass density	708.4
CCCCCCCCCCCCCCCC	mass density	753.9
CCCCCCCCCCCC	mass density	728.2

Lab book: mass density of CCCCCC noted as 633.1

* * *

I'd be grateful if you could share measured mass density for these entries.
condition info: 298.15 K; 1000 kPa; Liquid; Vibrating tube method
One number for each entry, in kg/m3.

molecule smiles	mass density, kg/m3
CCCCCCCCCCCCCCCC	771.1
CCCCCCCCCC	727.4
CCCCCCCCCCCC	746.2

Now turn to the next compound.
Lab book: mass density of CCCCCC noted as 655.9

* * *

condition info: 348.15 K; 1000 kPa; Liquid; Vibrating tube method
I'd be grateful if you could share measured mass density for these entries.
One number for each entry, in kg/m3.

Example results:
molecule smiles	unit name	quantitative result
CCCCCCCCCCCCCCCC	kg/m3	736.5
CCCCCC	kg/m3	608.5
CCCCCCCCCC	kg/m3	688.6

Now turn to the next molecule.
Lab book: mass density of CCCCCCCCCCCC noted as 709.6

* * *

condition info: 423.15 K; 60000 kPa; Liquid; Vibrating tube method
I'd be grateful if you could share measured mass density for these entries.
Answers are plain numbers, in kg/m3.

molecule smiles	mass density, kg/m3
CCCCCCCCCCCCCCCC	737.2
CCCCCCCCCCCC	712.8
CCCCCC	624.8

Now turn to the next compound.
Lab book: mass density of CCCCCCCCCC noted as 693.8

* * *

condition info: 463.15 K; 10000 kPa; Liquid; Vibrating tube method
experimental endpoint: mass density (kg/m3)
Give bare numbers, in kg/m3.

molecule	unit name	mass density
CCCCCCCCCC [decane]	kg/m3	610.8
CCCCCCCCCCCC [dodecane]	kg/m3	636.9

Give me mass density for each of these molecules, listed below.
1. CCCCCCCCCCCCCCCC [hexadecane]
2. CCCCCC [hexane]

Solution:
[668.5, 508.5]

* * *

condition info: 298.15 K; 100 kPa; Liquid; Vibrating tube method
I'd be grateful if you could share measured mass density for these entries.
Numbers only, in kg/m3.

molecule smiles	unit name	mass density
CCCCCC	kg/m3	656.1
CCCCCCCCCCCCCCCC	kg/m3	770.5

Give me mass density for each of these compounds, listed below.
1. CCCCCCCCCC
2. CCCCCCCCCCCC

Solution:
1. 726.7
2. 745.6

* * *

I'd be grateful if you could share measured mass density for these entries.
condition info: 463.15 K; 20000 kPa; Liquid; Vibrating tube method
± gives the expanded uncertainty stated by the source.
Give the value; after it, write the unit.

Give me mass density for each of these compounds, listed below.
1. CCCCCC
2. CCCCCCCCCCCC
3. CCCCCCCCCCCCCCCC
4. CCCCCCCCCC

Solution:
538.9 ± 3.1 kg/m3
651.8 ± 3 kg/m3
681.2 ± 3 kg/m3
627.8 ± 3 kg/m3

* * *

condition info: 373.15 K; 40000 kPa; Liquid; Vibrating tube method
experimental endpoint: mass density (kg/m3)
One number for each entry, in kg/m3.

Example results:
compound	mass density [kg/m3]
CCCCCC [hexane]	637.4
CCCCCCCCCCCCCCCC [hexadecane]	750.3
CCCCCCCCCCCC [dodecane]	725.6

Now turn to the next compound.
Lab book: mass density of CCCCCCCCCC [decane] noted as 706.8

* * *

I'd be grateful if you could share measured mass density for these entries.
condition info: 373.15 K; 1000 kPa; Liquid; Vibrating tube method
Answers are plain numbers, in kg/m3.

Example results:
compound	experimental endpoint	quantitative result
CCCCCCCCCCCCCCCC [hexadecane]	mass density	719.4
CCCCCCCCCCCC [dodecane]	mass density	690.8
CCCCCCCCCC [decane]	mass density	668.8

Lab book: mass density of CCCCCC [hexane] noted as 582.6

* * *

condition info: 298.15 K; 10000 kPa; Liquid; Vibrating tube method
I'd be grateful if you could share measured mass density for these entries.
One number for each entry, in kg/m3.

Example results:
molecule	mass density, kg/m3
CCCCCC [hexane]	665.1
CCCCCCCCCC [decane]	734.2
CCCCCCCCCCCCCCCC [hexadecane]	776.9

Now turn to the next molecule.
Lab book: mass density of CCCCCCCCCCCC [dodecane] noted as 752.4

* * *

I'd be grateful if you could share measured mass density for these entries.
condition info: 348.15 K; 60000 kPa; Liquid; Vibrating tube method
Answers are plain numbers, in kg/m3.

Example results:
compound	quantitative result
CCCCCCCCCCCCCCCC [hexadecane]	775.1
CCCCCCCCCC [decane]	734.6
CCCCCCCCCCCC [dodecane]	752.3

Now turn to the next compound.
Lab book: mass density of CCCCCC [hexane] noted as 670.2

* * *

condition info: 323.15 K; 40000 kPa; Liquid; Vibrating tube method
experimental endpoint: mass density (kg/m3)
Give bare numbers, in kg/m3.

Example results:
compound	experimental endpoint	quantitative result
CCCCCC [hexane]	mass density	671.9
CCCCCCCCCCCC [dodecane]	mass density	755.2
CCCCCCCCCCCCCCCC [hexadecane]	mass density	778.5

Now turn to the next compound.
Lab book: mass density of CCCCCCCCCC [decane] noted as 737.5

* * *

condition info: 373.15 K; 20000 kPa; Liquid; Vibrating tube method
± gives the expanded uncertainty stated by the source.
experimental endpoint: mass density

Example results:
molecule smiles	experimental endpoint	result
CCCCCCCCCC	mass density	689.8 ± 3 kg/m3
CCCCCC	mass density	614.8 ± 3 kg/m3
CCCCCCCCCCCC	mass density	709.8 ± 3 kg/m3

Now turn to the next molecule.
Lab book: mass density of CCCCCCCCCCCCCCCC noted as 735.9 ± 3 kg/m3

* * *

condition info: 463.15 K; 40000 kPa; Liquid; Vibrating tube method
experimental endpoint: mass density (kg/m3)
Numbers only, in kg/m3.

compound	mass density [kg/m3]
CCCCCCCCCC [decane]	653.1
CCCCCC [hexane]	575.9
CCCCCCCCCCCCCCCC [hexadecane]	701.4

Now turn to the next compound.
Lab book: mass density of CCCCCCCCCCCC [dodecane] noted as 674.8
